system: p-IKKa levels in L363 (NIK translocated multiple myeloma) cells; assay: Assay 2: Effect of compounds on p-IKKa levels in L363 (NIK translocated multiple myeloma) cells; format: cell-based; settings: Homo sapiens, L-363, 6 h, read-out: Assay 2 IC50 (nM), p-IKKa (Ser 176/180) in BAFF stimulated L363 cells with MG132, 6 h; average if tested more than once

{"columns": ["COMPOUND", "MEASURED_TARGET", "IC50"],
 "data": [
  ["Cc1nn(CC(F)F)cc1Nc1nccc(-c2cccc(-c3cc([C@]4(O)CCN(C)C4=O)on3)n2)n1", "p-IKKa levels in L363 (NIK translocated multiple myeloma) cells", "< 50 nM"],
  ["Cc1ccc(O)c(Nc2nccc(-c3cccc(-c4cc([C@]5(O)CCN(C)C5=O)on4)n3)n2)n1", "p-IKKa levels in L363 (NIK translocated multiple myeloma) cells", "> 500 nM"],
  ["CN1CC[C@@](O)(c2cc(-c3cccc(-c4ccnc(Nc5ccnc(C(F)F)c5)n4)n3)no2)C1=O", "p-IKKa levels in L363 (NIK translocated multiple myeloma) cells", "< 50 nM"],
  ["Cc1cn(C2CC(O)C2)nc1Nc1nccc(-c2cccc(-c3cc([C@]4(O)CCN(C)C4=O)on3)n2)n1 (stereo partly shown)", "p-IKKa levels in L363 (NIK translocated multiple myeloma) cells", "< 50 nM"],
  ["Cc1noc([C@@H](C)Nc2nccc(-c3cccc(-c4cc([C@]5(O)CCN(C)C5=O)on4)n3)n2)n1 (single isomer, unassigned)", "p-IKKa levels in L363 (NIK translocated multiple myeloma) cells", "50 to 500 nM"],
  ["CN1CC[C@@](O)(c2cc(-c3cccc(-c4ccnc(NC5CCN(CC(F)F)C5)n4)n3)no2)C1=O (stereo partly shown)", "p-IKKa levels in L363 (NIK translocated multiple myeloma) cells", "> 500 nM"],
  ["Cc1nnc(C(C)Nc2nccc(-c3cccc(-c4cc([C@]5(O)CCN(C)C5=O)on4)n3)n2)o1 (stereo partly shown)", "p-IKKa levels in L363 (NIK translocated multiple myeloma) cells", "50 to 500 nM"],
  ["CN1CC[C@@](O)(c2cc(-c3cccc(-c4ccnc(NC5COCC5(F)F)n4)n3)no2)C1=O (mixture of isomers)", "p-IKKa levels in L363 (NIK translocated multiple myeloma) cells", "50 to 500 nM"],
  ["Cc1nn(CCN(C)C)c(C)c1Nc1nccc(-c2cccc(-c3cc([C@]4(O)CCN(C)C4=O)on3)n2)n1", "p-IKKa levels in L363 (NIK translocated multiple myeloma) cells", "> 500 nM"],
  ["CN1CC[C@@](O)(c2cc(-c3cccc(-c4ccnc(N[C@H]5C[C@H](F)C5)n4)n3)no2)C1=O", "p-IKKa levels in L363 (NIK translocated multiple myeloma) cells", "50 to 500 nM"],
  ["C[C@@H](Nc1nccc(-c2cccc(-c3cc([C@]4(O)CCN(C)C4=O)on3)n2)n1)c1ccnn1C (single isomer, unassigned)", "p-IKKa levels in L363 (NIK translocated multiple myeloma) cells", "50 to 500 nM"],
  ["Cc1nn(C)cc1Nc1nccc(-c2cccc(-c3cc([C@]4(O)CCN(C)C4=O)on3)n2)n1", "p-IKKa levels in L363 (NIK translocated multiple myeloma) cells", "< 50 nM"],
  ["CN1CC[C@@](O)(c2cc(-c3cccc(-c4ccnc(Nc5ccc(F)cn5)n4)n3)no2)C1=O", "p-IKKa levels in L363 (NIK translocated multiple myeloma) cells", "50 to 500 nM"],
  ["C[C@@H](Nc1nccc(-c2cccc(-c3cc([C@]4(O)CCN(C)C4=O)on3)n2)n1)c1cccnc1", "p-IKKa levels in L363 (NIK translocated multiple myeloma) cells", "50 to 500 nM"],
  ["CN1CC[C@@](O)(c2cc(-c3cccc(-c4ccnc(Nc5cc(CO)n(C)n5)n4)n3)no2)C1=O", "p-IKKa levels in L363 (NIK translocated multiple myeloma) cells", "50 to 500 nM"],
  ["CN1CC[C@@](O)(c2cc(-c3cccc(-c4ccnc(Nc5cn(C)cn5)n4)n3)no2)C1=O", "p-IKKa levels in L363 (NIK translocated multiple myeloma) cells", "50 to 500 nM"],
  ["CN1CC[C@@](O)(c2cc(-c3cccc(-c4ccnc(Nc5ccn(C)n5)n4)n3)on2)C1=O", "p-IKKa levels in L363 (NIK translocated multiple myeloma) cells", "< 50 nM"],
  ["CN1CC[C@@](O)(c2cc(-c3cccc(-c4ccnc(Nc5cccnc5)n4)n3)no2)C1=O", "p-IKKa levels in L363 (NIK translocated multiple myeloma) cells", "> 500 nM"],
  ["CN1CC[C@@](O)(c2cc(-c3cccc(-c4ccnc(NCCC(F)F)n4)n3)no2)C1=O", "p-IKKa levels in L363 (NIK translocated multiple myeloma) cells", "50 to 500 nM"],
  ["CN1CC[C@@](O)(c2cn(-c3cccc(-c4ccnc(Nc5cnn(CC(F)(F)F)c5)n4)n3)nn2)C1=O", "p-IKKa levels in L363 (NIK translocated multiple myeloma) cells", "< 50 nM"],
  ["CN1CC(F)(F)[C@@](O)(c2cn(-c3cccc(-c4ccnc(Nc5cnn(C)c5Cl)n4)n3)nn2)C1=O", "p-IKKa levels in L363 (NIK translocated multiple myeloma) cells", "< 50 nM"],
  ["C[C@@H](Nc1nccc(-c2cccc(-c3cc([C@]4(O)CCN(C)C4=O)on3)n2)n1)c1cnnn1C", "p-IKKa levels in L363 (NIK translocated multiple myeloma) cells", "50 to 500 nM"],
  ["CN1CC[C@@](O)(c2cc(-c3cccc(-c4ccnc(Nc5cnn6c5CNCC6)n4)c3)no2)C1=O", "p-IKKa levels in L363 (NIK translocated multiple myeloma) cells", "> 500 nM"],
  ["CN1CC[C@@](O)(c2cc(-c3cccc(-c4ccnc(N[C@H]5CCSC5)n4)n3)no2)C1=O (single isomer, unassigned)", "p-IKKa levels in L363 (NIK translocated multiple myeloma) cells", "50 to 500 nM"],
  ["Cc1cc(Nc2nccc(-c3cccc(-c4cc([C@]5(O)CCN(C)C5=O)on4)n3)n2)n(CCO)n1", "p-IKKa levels in L363 (NIK translocated multiple myeloma) cells", "50 to 500 nM"],
  ["C[C@@H]1C[C@@](O)(c2cc(-c3cccc(-c4ccnc(Nc5ccn(C)n5)n4)n3)no2)C(=O)N1C", "p-IKKa levels in L363 (NIK translocated multiple myeloma) cells", "50 to 500 nM"],
  ["C[C@@H](CC(F)(F)F)Nc1nccc(-c2cccc(-c3cc([C@]4(O)CCN(C)C4=O)on3)n2)n1 (single isomer, unassigned)", "p-IKKa levels in L363 (NIK translocated multiple myeloma) cells", "50 to 500 nM"],
  ["CN1CC[C@@](O)(c2cc(-c3cccc(-c4ccnc(NC5CCN(C6CC6)C5)n4)n3)no2)C1=O (mixture of isomers)", "p-IKKa levels in L363 (NIK translocated multiple myeloma) cells", "> 500 nM"]
]}
